system: RPMI-8226 leukemia; assay: NCI-60 one-dose screen, 48 h (100 = growth as untreated, 0 = no growth, -100 = all killed); conditions: 10 µM unless noted
The panel holds about 83,000 compounds, 20% with a hit somewhere; the sample as a whole holds those more often.
READOUT: growth (%)
A number alone suffices; assume %.

Sample CCOC(=O)N1CC1 — what was its growth?
91.2

Sample COC1OC(CO)C(O)C(O)[CH]1[Hg][O]C(C)=O (centres undefined) — what was its growth?
104

Sample COc1cc2ncnc(Nc3ccc(F)c(Cl)c3)c2cc1OCC(=O)N1CCN(C)CC1 — what was its growth?
90.5

Sample O=C(O)c1ccc([S-])cc1.[Au+].c1ccc(CN2[CH-]N(Cc3ccccc3)C(c3ccccc3)=C2c2ccccc2)cc1 — what was its growth?
-11

Sample O=c1[nH]cc(N(CCCl)CCCl)c(=O)[nH]1 — what was its growth?
77.8

Sample COc1cc(/C=C/[N+](=O)[O-])c([N+](=O)[O-])cc1OC — what was its growth?
4.37

Sample COc1cc(C=Nc2cc(Cl)cc(Cl)c2)ccc1N(CCCl)CCCl — what was its growth?
75

Sample CCOC(=O)[C@@H](C)C[C@H](Cc1ccccc1)NC(=O)c1csc([C@@H](C[C@H](C(C)C)N(C)C(=O)[C@@H](NC(=O)[C@H]2CCCCN2C)C(C)(C)C)OC(C)=O)n1 — what was its growth?
11.9

Sample O=C1CC2(CC3(Cl)C(Cl)=C(Cl)C2(Cl)C3(Cl)Cl)C(=O)O1 (centres undefined) — what was its growth?
105

Sample Fc1c[c-]c(-c2ccccn2)c(F)c1.[CH3-].[Pt+2].c1ccc([PH+](c2ccccc2)c2ccccn2)cc1 — what was its growth?
-8.21

Sample C/C(CC(C)(C)N1CC1)=N\NC(=O)Nc1cccc2ccccc12 — what was its growth?
72.7

Sample COC(=O)C12CC(NC(=O)c3csc([C@@H](C[C@H](C(C)C)N(C)C(=O)[C@@H](NC(=O)[C@H]4CCCCN4C)C(C)C)OC(C)=O)n3)(C1)C2 — what was its growth?
17.8

Sample C=C(C)[C@@]12OC3(/C=C/C=C/CCCCC)O[C@@H]1[C@@H]1[C@@H]4O[C@]4(CO)[C@@H](O)[C@]4(O)C(=O)C(C)=C[C@H]4[C@@]1(O3)[C@H](C)[C@H]2OC(=O)c1ccccc1 — what was its growth?
66.4

Sample CC(C)CCC(=O)O[C@H]1CC[C@H]2[C@@H]3CCC4=CC(=O)CC[C@]4(C)[C@H]3CC[C@]12C — what was its growth?
98.6

----------
test system: MDA-MB-435 melanoma; experiment: NCI-60 one-dose screen, 48 h; conditions: 10 µM unless noted
Compounds without any hit were thinned out: in the full panel of roughly 83,000, 20% have a hit. Active and inactive are the calls of the source. How the source made its calls: active means growth percent below 10; inactive means the rest.
Write down one outcome, taken from 1 (active), -1 (inactive)

Can you look up the reported call for COc1cccc(C=NC(Cc2cnc[nH]2)C(=O)O)c1O (stereo not drawn) for me?
-1

Can you look up the reported call for CN(C)C(=O)Oc1ccccc1-c1ccccc1 for me?
-1

Can you look up the reported call for C=C1C[C@](OC)([C@H](O)C(=O)N[C@@H](OC)[C@@H]2C[C@@H](O)C(C)(C)[C@@H](C[C@@H](COC)OC)O2)O[C@H](C)[C@@H]1C for me?
1

Can you look up the reported call for CC[C@H](C)[C@H](NC(=O)N[C@@H](C)c1ccccc1)C(=O)N(C)[C@H](C[C@@H](OC(C)=O)c1nc(C(=O)N[C@@H](Cc2ccccc2)C[C@H](C)C(=O)OC)cs1)C(C)C for me?
1

Can you look up the reported call for C[C@]12CC[C@H]3[C@@H](CC4SC(N)=NC45C/C(=N/NC(N)=O)CC[C@]35C)[C@@H]1CCC2=O (stereo partly drawn) for me?
1

Can you look up the reported call for CO[C@H]1CC[C@@]2(C)C(=CC[C@@H]3[C@@H]2CC[C@]2(C)C(=O)C(=O)C[C@@H]32)C1 for me?
-1

Can you look up the reported call for O=C(Nc1ccncc1F)c1cn(CC2CC2)c2ccccc12 for me?
-1

Can you look up the reported call for C1CCC([PH+](C2CCCCC2)C2CCCCC2[PH+](C2CCCCC2)C2CCCCC2)CC1.O=C(C1[CH-]CCCC1)C1CCCC[N-]1.[Au] (stereo not drawn) for me?
1

These entries and their values trace back to PubChem BioAssay (NCI).
